# targetOfAssay: full length human SIRPα v1 with a small beta-gal fragment (ED) fused to its C-terminal, expressed in K562 … (human, UniProt P78324 31-504)
# Sequence (P78324 31-504): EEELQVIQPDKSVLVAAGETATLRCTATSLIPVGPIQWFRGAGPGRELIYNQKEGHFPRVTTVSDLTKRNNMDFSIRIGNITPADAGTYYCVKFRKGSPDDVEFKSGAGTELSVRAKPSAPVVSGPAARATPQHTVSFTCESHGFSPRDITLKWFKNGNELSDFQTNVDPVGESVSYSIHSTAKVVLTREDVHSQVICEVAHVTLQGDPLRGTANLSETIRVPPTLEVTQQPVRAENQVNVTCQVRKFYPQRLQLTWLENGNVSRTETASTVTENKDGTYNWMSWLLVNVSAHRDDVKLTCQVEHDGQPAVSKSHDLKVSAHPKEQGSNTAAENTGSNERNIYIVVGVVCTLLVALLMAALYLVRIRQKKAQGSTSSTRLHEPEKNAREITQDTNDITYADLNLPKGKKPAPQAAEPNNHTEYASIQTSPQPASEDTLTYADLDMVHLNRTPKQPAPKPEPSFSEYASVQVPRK
# assayOverview: cell-based or functional assay
quantityName: SHP-1 recruitment (% blocking), Test I (%)
Could you give me the number in %? Just the number is fine.

Examples with their reported SHP-1 recruitment (% blocking), Test I follow.
071 (antibody, V domains shown, Mouse monoclonal hybridoma antibody; also called antibody 071; hybridoma antibody 071) VH: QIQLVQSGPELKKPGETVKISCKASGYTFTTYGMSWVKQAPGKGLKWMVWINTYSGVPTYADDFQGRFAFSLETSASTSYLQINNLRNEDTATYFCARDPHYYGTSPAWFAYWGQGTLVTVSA VL: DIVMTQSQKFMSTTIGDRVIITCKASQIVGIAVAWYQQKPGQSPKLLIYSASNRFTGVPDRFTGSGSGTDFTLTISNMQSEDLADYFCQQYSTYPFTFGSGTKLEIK :: 77.2
059 (antibody, V domains shown, Mouse monoclonal hybridoma antibody; also called antibody 059; hybridoma antibody 059) VH: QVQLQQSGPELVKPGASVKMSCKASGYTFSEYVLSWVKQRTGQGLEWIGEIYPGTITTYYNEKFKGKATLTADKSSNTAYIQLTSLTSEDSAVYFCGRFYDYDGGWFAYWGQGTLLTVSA VL: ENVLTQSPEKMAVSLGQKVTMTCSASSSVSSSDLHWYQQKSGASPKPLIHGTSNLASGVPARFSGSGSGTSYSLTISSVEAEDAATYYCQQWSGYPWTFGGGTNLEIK :: 77.5
042 (antibody, V domains shown, Mouse monoclonal hybridoma antibody; also called antibody 042; hybridoma antibody 042) VH: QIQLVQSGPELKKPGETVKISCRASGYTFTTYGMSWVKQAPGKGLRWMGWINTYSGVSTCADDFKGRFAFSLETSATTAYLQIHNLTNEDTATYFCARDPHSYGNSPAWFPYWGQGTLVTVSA VL: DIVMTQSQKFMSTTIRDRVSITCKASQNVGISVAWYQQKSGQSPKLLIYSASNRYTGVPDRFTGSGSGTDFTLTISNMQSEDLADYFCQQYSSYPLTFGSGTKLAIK :: 84.8
HEFLB (antibody, V domains shown) VH: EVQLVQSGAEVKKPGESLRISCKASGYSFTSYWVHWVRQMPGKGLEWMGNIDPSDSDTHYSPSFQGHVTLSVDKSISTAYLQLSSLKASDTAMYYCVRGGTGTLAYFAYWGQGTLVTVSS VL: DVVMTQSPLSLPVTLGQPASISCRSSQSLVHSYGNTYLYWFQQRPGQSPRLLIYRVSNRFSGVPDRFSGSGSGTDFTLKISRVEAEDVGVYYCFQGTHVPYTFGGGTKVEIK :: 46.8

// switching to the query binder
Exam item: Request the reported SHP-1 recruitment (% blocking), Test I associated with 015 (antibody, V domains shown, Mouse monoclonal hybridoma antibody; also called antibody 015; hybridoma antibody 015) VH: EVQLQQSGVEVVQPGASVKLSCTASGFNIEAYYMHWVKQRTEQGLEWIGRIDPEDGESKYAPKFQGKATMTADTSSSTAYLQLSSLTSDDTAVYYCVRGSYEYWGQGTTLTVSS VL: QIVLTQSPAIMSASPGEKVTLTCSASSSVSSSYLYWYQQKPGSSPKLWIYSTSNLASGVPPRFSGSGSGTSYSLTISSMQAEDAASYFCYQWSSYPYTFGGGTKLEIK
Marked response: 83.6
